Assay System: human HAQ STING isoform (hSTING HAQ) (Homo sapiens, UniProt Q86WV6, G230A/H232R/R293Q/R71H)
Construct: THP1 cells express the naturally occurring human HAQ STING isoform (hSTING HAQ); host or cells: THP1
Sequence (Q86WV6 whole entry R71H/G230A/H232R/R293Q, canonical isoform): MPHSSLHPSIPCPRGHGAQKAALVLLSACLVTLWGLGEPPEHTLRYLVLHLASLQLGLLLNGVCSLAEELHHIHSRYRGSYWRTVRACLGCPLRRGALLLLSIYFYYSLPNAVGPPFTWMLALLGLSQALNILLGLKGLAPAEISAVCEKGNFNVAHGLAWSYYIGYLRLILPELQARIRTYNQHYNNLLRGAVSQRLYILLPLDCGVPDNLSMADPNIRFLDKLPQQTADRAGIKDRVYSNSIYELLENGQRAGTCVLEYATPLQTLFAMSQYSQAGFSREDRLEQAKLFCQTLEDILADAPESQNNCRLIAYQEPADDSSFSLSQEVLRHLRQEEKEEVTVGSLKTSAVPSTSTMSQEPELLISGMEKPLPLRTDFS
Procedure Details: IFN-β mRNA level in THP1 cells (qPCR, STING agonist cellular activity)
Assay type: cell-based
Experimental Context: compound at 3.6 μM, 2 hrs, IFNβ expression normalized against GAPDH by the 2^-ΔΔCT method, DMSO = 1.0
Property Label: Relative mRNA INFβ/GAPDH THP 1

Recorded Relative mRNA INFβ/GAPDH THP 1, per entry:
Compound: COc1cc(CN(Cc2cn3c4c(c(N5CC(O)C5)c(F)cc4c2=O)OCC3C)[C@H]2CCCN(c3ccc(N)nc3)C2)ccn1 (stereo partly shown)
Relative mRNA INFβ/GAPDH THP 1: 672.0
--
Compound: COc1cc(CN(Cc2cn3c4c(c(F)c(F)cc4c2=O)OC[C@@H]3C)[C@H]2CCCN(c3ccc(N)nc3)C2)ccn1
Relative mRNA INFβ/GAPDH THP 1: 1595.2
--
Compound: Cc1ccc(N2CCC[C@H](N(Cc3ccnc(N)c3)Cc3cn4c5c(c(F)c(F)cc5c3=O)OCC4C)C2)cn1 (stereo partly shown)
Relative mRNA INFβ/GAPDH THP 1: 65.6
--
Compound: COc1cc(CN(Cc2cn3c4c(c(F)c(F)cc4c2=O)OC(C)C3)[C@H]2CCCN(c3ccc(N)nc3)C2)ccn1 (stereo partly shown)
Relative mRNA INFβ/GAPDH THP 1: 7257.8
--
Compound: COc1cc(CN(Cc2cn3c4c(c(F)c(F)cc4c2=O)OCC3C)[C@H]2CCCN(c3cnc4[nH]ncc4c3)C2)ccn1 (stereo partly shown)
Relative mRNA INFβ/GAPDH THP 1: 3.9

[A] COc1cc(CN(Cc2cn3c4c(c(C5=CCN(C6CC6)CC5)c(F)cc4c2=O)OCC3C)[C@H]2CCCN(c3ccc(N)nc3)C2)ccn1 (stereo partly shown)
[B] COc1cc(CN(Cc2cn3c4c(c(F)c(F)cc4c2=O)OCC3)[C@H]2CCCN(c3ccc([N+](=O)[O-])nc3)C2)ccn1
[C] COc1cc(CN(Cc2cn3c4c(c(N5CCc6ccccc6C5)c(F)cc4c2=O)OCC3C)[C@H]2CCCN(c3ccc(N)nc3)C2)ccn1 (stereo partly shown)
[D] COc1cc(CN(Cc2cn3c4c(c(N5CCN(CNC(N)=O)CC5)c(F)cc4c2=O)OCC3C)[C@H]2CCCN(c3ccc(N)nc3)C2)ccn1 (stereo partly shown)
Put the items in order so that reported Relative mRNA INFβ/GAPDH THP 1 rises from first to last. List the labels in the requested order.
D, B, A, C

[P] COc1cc(CN(Cc2cn3c4c(c(F)c(F)cc4c2=O)OCC3C)[C@H]2CCN(c3ccc(N)nc3)C2)ccn1 (stereo partly shown)
[Q] COc1cc(CN(Cc2cn3c4c(c(F)c(F)cc4c2=O)OCC3)[C@H]2CCCN(c3ccc(C)nc3)C2)ccn1
[R] COc1cc(CN(Cc2cn3c4c(c(F)c(F)cc4c2=O)OCC3C)[C@H]2CCCN(c3ccc(NCC4CC4)nc3)C2)ccn1 (stereo partly shown)
Put the items in order so that reported Relative mRNA INFβ/GAPDH THP 1 rises from first to last. Response format: the labels, sorted as the prompt asks.
P, R, Q
(P: 5.8, R: 2142.1, Q: 6820.3)

====

Assay System: human HAQ STING isoform (hSTING HAQ) (Homo sapiens, UniProt Q86WV6, G230A/H232R/R293Q/R71H)
Construct: THP1 cells express the naturally occurring human HAQ STING isoform (hSTING HAQ); host or cells: THP1
Procedure Details: IFN-β mRNA level in THP1 cells (qPCR, STING agonist cellular activity)
Assay type: cell-based
Experimental Context: compound at 3.6 μM, 2 hrs, IFNβ expression normalized against GAPDH by the 2^-ΔΔCT method, DMSO = 1.0
Property Label: Relative mRNA INFβ/GAPDH THP 1

Compound: CCN1CCN(c2c(F)cc3c(=O)c(CN(Cc4ccnc(OC)c4)[C@H]4CCCN(c5ccc(N)nc5)C4)cn4c3c2OCC4)CC1 [Compound 93]
Property Label: Relative mRNA INFβ/GAPDH THP 1
Measured Number: 411.3

[A] COc1cc(CN(Cc2cn3c4c(c(N5CCNC(C)C5)c(F)cc4c2=O)OCC3C)[C@H]2CCCN(c3ccc(N)nc3)C2)ccn1 (stereo partly drawn) [Compound 40]
[B] CCOc1cc(CN(Cc2cn3c4c(c(F)c(F)cc4c2=O)OCC3)[C@H]2CCCN(c3cnccn3)C2)ccn1 [Compound 90]
For the two items A and B , which reports the higher Relative mRNA INFβ/GAPDH THP 1 value? Your answer should be the label of the entry you select.
A

====

Assay System: human HAQ STING isoform (hSTING HAQ) (Homo sapiens, UniProt Q86WV6, G230A/H232R/R293Q/R71H)
Construct: THP1 cells express the naturally occurring human HAQ STING isoform (hSTING HAQ); host or cells: THP1
Procedure Details: IFN-β mRNA level in THP1 cells (qPCR, STING agonist cellular activity)
Format: cell-based
Experimental Context: compound at 3.6 μM, 2 hrs, IFNβ expression normalized against GAPDH by the 2^-ΔΔCT method, DMSO = 1.0
Property Label: Relative mRNA INFβ/GAPDH THP 1

Compound: COc1cc(CN(Cc2cn3c4c(c(N5CCCCC5C)c(F)cc4c2=O)OCC3C)[C@H]2CCCN(c3ccc(N)nc3)C2)ccn1 (stereo partly shown) [Compound 37]
Relative mRNA INFβ/GAPDH THP 1: 6829.2

[I] COc1cnccc1CN(Cc1cn2c3c(c(F)c(F)cc3c1=O)OCC2)[C@H]1CCCN(c2cnccn2)C1 [Compound 86]
[II] COc1cc(CN(Cc2cn3c4c(c(F)c(F)cc4c2=O)OCC3)[C@H]2CCCN(c3ccc(N)nc3)C2)ccn1 [Compound 66]
[III] COCC1COc2c(F)c(F)cc3c(=O)c(CN(Cc4ccnc(OC)c4)[C@H]4CCCN(c5ccc(N)nc5)C4)cn1c23 (stereo partly shown) [Compound 82]
Arrange these 3 compounds in increasing order of Relative mRNA INFβ/GAPDH THP 1. A complete answer lists every label in the requested sequence.
I, III, II
(I: 1.1, III: 349.0, II: 7328.8)

====

Assay System: human HAQ STING isoform (hSTING HAQ) (Homo sapiens, UniProt Q86WV6, G230A/H232R/R293Q/R71H)
Construct: THP1 cells express the naturally occurring human HAQ STING isoform (hSTING HAQ); host or cells: THP1
Procedure Details: IFN-β mRNA level in THP1 cells (qPCR, STING agonist cellular activity)
Assay type: cell-based
Experimental Context: compound at 3.6 μM, 2 hrs, IFNβ expression normalized against GAPDH by the 2^-ΔΔCT method, DMSO = 1.0
Property Label: Relative mRNA INFβ/GAPDH THP 1

Answered examples (2):
Molecule: COc1cc(CN(Cc2cn3c4c(c(N5CCN(Cc6oc(=O)oc6C)CC5)c(F)cc4c2=O)OCC3C)[C@H]2CCCN(c3ccc(N)nc3)C2)ccn1 (stereo partly drawn)
Relative mRNA INFβ/GAPDH THP 1: 604.8
--
Molecule: COc1cc(CN(Cc2cn3c4c(c(N5C[C@@H](C)N[C@@H](C)C5)c(F)cc4c2=O)OCC3C)[C@H]2CCCN(c3ccc(N)nc3)C2)ccn1 (stereo partly drawn)
Relative mRNA INFβ/GAPDH THP 1: 3791.8

[P] COc1cc(CN(Cc2cn3c4c(c(N5CCN(C)CC5)c(F)cc4c2=O)OCC3C)[C@H]2CCCN(c3ccc(N)nc3)C2)ccn1 (stereo partly drawn)
[Q] COc1cc(CN(Cc2cn3c4c(c(F)c(F)cc4c2=O)OCC3C)[C@H]2CCCN(c3ccc(N(C)C4CC4)nc3)C2)ccn1 (stereo partly drawn)
[R] COc1cc(CN(Cc2cn3c4c(c(N5CCCCC5=O)c(F)cc4c2=O)OCC3C)[C@H]2CCCN(c3ccc(N)nc3)C2)ccn1 (stereo partly drawn) [Compound 61]
[S] COc1cc(CN(Cc2cn3c4c(c(F)c(F)cc4c2=O)OCC3)[C@H]2CCCN(c3ccc(NCC4CC4)nc3)C2)ccn1
Arrange items by their Relative mRNA INFβ/GAPDH THP 1 values in increasing order. Write the labels, ordered according to the request.
R, Q, S, P
(R: 0.7, Q: 114.6, S: 368.7, P: 3330.1)

====

Assay System: hERG channel (Homo sapiens)
Sequence (Q12809 whole entry): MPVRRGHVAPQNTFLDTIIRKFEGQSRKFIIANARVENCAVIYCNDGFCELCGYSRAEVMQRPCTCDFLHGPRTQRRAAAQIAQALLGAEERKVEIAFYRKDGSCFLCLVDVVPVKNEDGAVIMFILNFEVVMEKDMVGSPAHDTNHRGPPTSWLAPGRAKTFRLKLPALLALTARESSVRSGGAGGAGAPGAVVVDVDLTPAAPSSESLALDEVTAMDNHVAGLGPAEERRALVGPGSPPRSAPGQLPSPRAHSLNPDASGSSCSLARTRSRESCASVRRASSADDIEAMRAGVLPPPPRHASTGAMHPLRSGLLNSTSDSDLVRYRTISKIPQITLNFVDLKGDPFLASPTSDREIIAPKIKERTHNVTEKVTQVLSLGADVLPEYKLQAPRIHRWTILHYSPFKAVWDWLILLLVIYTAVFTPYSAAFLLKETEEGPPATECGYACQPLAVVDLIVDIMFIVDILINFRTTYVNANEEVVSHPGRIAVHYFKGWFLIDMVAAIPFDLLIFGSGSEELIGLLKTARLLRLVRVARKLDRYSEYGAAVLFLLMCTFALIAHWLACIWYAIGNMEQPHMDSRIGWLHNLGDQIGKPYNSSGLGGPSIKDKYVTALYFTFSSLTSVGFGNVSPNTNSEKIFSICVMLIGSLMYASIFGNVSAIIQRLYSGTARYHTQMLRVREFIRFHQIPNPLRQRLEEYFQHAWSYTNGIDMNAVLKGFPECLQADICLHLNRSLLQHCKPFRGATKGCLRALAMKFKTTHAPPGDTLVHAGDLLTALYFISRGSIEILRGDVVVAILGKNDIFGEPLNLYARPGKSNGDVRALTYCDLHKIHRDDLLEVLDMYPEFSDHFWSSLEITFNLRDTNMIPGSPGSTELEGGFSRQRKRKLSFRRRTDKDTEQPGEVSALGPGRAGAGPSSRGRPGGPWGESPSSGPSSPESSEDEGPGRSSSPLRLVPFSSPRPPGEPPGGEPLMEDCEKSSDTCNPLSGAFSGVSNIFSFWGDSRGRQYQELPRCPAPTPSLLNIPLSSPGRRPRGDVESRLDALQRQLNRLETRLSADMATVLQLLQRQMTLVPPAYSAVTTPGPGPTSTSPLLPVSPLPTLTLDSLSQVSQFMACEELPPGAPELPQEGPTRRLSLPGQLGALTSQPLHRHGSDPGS
Procedure Details: hERG safety evaluation, manual whole cell patch clamp in hERG-expressing HEK 293 cells
Experimental Context: hERG stably expressed HEK 293 cells, tail current, whole cell recording
Property Label: IC50 (nM)
Give just the numeric value; nM need not be written.

These recorded examples may help you get a feel for the data.
Compound: COc1cc(CN(Cc2cn3c4c(c(F)c(F)cc4c2=O)OCC3)[C@H]2CCCN(c3ccc(N)nc3)C2)ccn1 [Compound 66]
IC50 [nM]: 2720
--
Compound: COCC1COc2c(F)c(F)cc3c(=O)c(CN(Cc4ccnc(OC)c4)[C@H]4CCCN(c5ccc(N)nc5)C4)cn1c23 (stereo partly shown) [Compound 82]
IC50 [nM]: 3140
--
Compound: COc1cc(CN(Cc2cn3c4c(c(F)c(F)cc4c2=O)OCC3C)[C@H]2CCCN(c3ccc(N)nc3)C2)ccn1 (stereo partly shown) [Compound 1]
IC50 [nM]: 1580

For the compound COc1cc(CN(Cc2cn3c4c(c(F)c(F)cc4c2=O)OCC3C(C)C)[C@H]2CCCN(c3ccc(N)nc3)C2)ccn1 (stereo partly shown) [Compound 53] , what IC50 is on record?
1270

Any idea what its IC50 is? The compound is COc1cc(CN(Cc2cn3c4c(c(N5CCN(C)CC5)c(F)cc4c2=O)OCC3C)[C@H]2CCCN(c3ccc(N)nc3)C2)ccn1 (stereo partly shown) [Compound 29]
34100

What does the record list as IC50 for COc1cc(CN(Cc2cn3c4c(c(F)c(F)cc4c2=O)CCC3)[C@H]2CCCN(c3ccc(N)nc3)C2)ccn1 [Compound 67] ?
3080

Any idea what IC50 was measured for COc1cc(CN(Cc2cn3c4c(c(F)c(F)cc4c2=O)SCC3)[C@H]2CCCN(c3ccc(N)nc3)C2)ccn1 [Compound 69] ?
1940
